system: S. mansoni adult schistosomes; assay: Schistosomiasis screening, adult worm killing (S. mansoni); format: cell-based, Schistosoma mansoni; details: adult worms, final concentration 143 μM, 45 minutes incubation, washed, cultured 10-14 days, read day 14
Labelling: Kill % S. m reported below 40% becomes Condition met; at or above becomes Condition not met.

Worked cases, answers included:
Problem: Check if Kill % S. m falls below 40% for O[C@@H]1c2ccccc2-c2cc3ccccc3c(F)c2[C@H]1O [CIDD-0150242] .
Solution: Condition not met

Problem: Check if Kill % S. m falls below 40% for CCN(CC)CCNC(=O)c1cccc2c(N)c3ccccc3nc12 [CIDD-0150239] .
Solution: Condition met

Problem: Check if Kill % S. m falls below 40% for Cn1c([N+](=O)[O-])nc2c3ccccc3ccc21 [CIDD-0150605] .
Solution: Condition met

Problem: Check if Kill % S. m falls below 40% for Cn1c([N+](=O)[O-])nc2ccc3ccccc3c21 [CIDD-0150606] .
Solution: Condition not met

Problem: Check if Kill % S. m falls below 40% for CC(=O)OC(C)N(N=O)C1CC1 (stereo not shown) [CIDD-0150327] .
Solution: Condition met

Problem: Check if Kill % S. m falls below 40% for C=CCN(N=O)C(C)OC(C)=O (stereo not shown) [CIDD-0150326] .
Solution: Condition met

Now for another entry.
Problem: Check if Kill % S. m falls below 40% for Cc1c2ccccc2nc2c(C(=O)NCCN(C)C)cccc12 [CIDD-0150237] .
Solution: Condition met
